Cited source: patent US10472356B2

Target: human Nav1.7 (Homo sapiens)
Construct: expressed in transfected cells; host or cells: HEK293
Sequence (Q15858 whole entry): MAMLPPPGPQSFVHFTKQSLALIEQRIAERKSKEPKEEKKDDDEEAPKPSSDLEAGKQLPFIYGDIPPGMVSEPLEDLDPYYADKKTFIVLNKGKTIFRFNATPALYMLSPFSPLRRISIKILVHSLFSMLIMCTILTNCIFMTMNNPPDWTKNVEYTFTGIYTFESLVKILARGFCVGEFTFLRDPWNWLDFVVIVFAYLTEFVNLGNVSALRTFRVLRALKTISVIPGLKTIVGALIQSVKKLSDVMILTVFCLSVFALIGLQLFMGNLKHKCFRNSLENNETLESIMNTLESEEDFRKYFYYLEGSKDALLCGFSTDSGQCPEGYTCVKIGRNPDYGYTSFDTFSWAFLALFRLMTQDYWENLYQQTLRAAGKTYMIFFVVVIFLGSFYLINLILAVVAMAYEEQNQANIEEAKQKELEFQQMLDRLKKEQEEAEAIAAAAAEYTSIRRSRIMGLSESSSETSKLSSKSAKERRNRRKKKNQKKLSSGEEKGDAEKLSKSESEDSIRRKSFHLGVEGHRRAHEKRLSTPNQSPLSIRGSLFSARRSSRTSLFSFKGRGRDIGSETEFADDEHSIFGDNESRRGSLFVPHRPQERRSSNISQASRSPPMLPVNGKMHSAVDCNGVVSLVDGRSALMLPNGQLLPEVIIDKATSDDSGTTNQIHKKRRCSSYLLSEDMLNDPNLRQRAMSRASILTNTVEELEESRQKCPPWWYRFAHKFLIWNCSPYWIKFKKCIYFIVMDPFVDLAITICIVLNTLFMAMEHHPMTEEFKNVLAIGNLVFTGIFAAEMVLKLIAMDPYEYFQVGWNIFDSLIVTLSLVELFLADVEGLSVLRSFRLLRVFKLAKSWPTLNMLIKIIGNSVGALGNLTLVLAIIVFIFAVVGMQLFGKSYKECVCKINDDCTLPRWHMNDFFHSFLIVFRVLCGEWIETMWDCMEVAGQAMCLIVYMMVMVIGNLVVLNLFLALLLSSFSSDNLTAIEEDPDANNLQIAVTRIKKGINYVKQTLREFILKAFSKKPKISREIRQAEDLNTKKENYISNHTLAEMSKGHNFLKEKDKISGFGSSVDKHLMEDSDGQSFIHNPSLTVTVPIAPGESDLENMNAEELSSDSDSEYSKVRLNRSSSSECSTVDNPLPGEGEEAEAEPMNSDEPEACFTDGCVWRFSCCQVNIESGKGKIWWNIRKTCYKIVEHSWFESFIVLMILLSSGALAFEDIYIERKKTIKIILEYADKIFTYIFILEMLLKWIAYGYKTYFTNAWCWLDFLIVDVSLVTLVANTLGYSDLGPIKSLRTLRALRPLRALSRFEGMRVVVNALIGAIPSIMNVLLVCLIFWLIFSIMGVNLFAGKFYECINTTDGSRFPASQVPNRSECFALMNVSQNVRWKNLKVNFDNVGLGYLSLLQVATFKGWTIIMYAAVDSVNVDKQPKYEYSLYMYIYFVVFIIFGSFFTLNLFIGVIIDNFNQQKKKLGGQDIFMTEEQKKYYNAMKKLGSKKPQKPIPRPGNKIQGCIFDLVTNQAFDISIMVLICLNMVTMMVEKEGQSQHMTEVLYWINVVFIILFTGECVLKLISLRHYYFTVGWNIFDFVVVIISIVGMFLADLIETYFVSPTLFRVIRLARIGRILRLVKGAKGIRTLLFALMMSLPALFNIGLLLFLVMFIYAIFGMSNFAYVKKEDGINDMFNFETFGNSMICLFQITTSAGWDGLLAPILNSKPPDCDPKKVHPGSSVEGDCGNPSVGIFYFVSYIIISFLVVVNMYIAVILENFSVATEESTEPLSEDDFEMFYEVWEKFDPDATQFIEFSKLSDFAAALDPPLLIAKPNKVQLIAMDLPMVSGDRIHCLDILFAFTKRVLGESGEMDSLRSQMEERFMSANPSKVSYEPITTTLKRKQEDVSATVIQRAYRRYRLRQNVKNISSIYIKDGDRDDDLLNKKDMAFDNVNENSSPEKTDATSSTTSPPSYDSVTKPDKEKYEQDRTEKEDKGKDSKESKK
Assay: Nav 1.7 In Vitro PatchXpress (PX) Assay
Format: cell-based
Settings: HEK 293 cells stably transfected with human Nav1.7; PatchXpress whole cell voltage clamp; partially inactivated state (holding potential yielding 20 to 50% inactivation); read-out: hNav1.7 PX IC50
Procedure: Nav 1.7 In Vitro PatchXpress (PX) Assay HEK 293 cells stably transfected with human Nav1.7 were recorded in whole cell voltage clamp mode with the PatchXpress automated electrophysiology system (Molecular Devices, LLC, Sunnyvale, Calif.). Compound effects were measured on a partially inactivated state of the sodium channel. […] Peak sodium current was measured at the end of the compound addition period to determine percent inhibition. […]
reportedProperty: log10 of IC50 (log10 of the value in nM)
Remember, log10 of IC50, in nM.

Please review the entries below; each comes with its answer.
{"molecule": "COc1cc(-c2ccc(F)c(C)c2)c(F)cc1-n1c2c(ccc1=O)CN(S(=O)(=O)Nc1ncccn1)CC2 (racemic) [Example 29-(Rac)]", "reportedProperty": "log10 of IC50", "readoutValue": 3.07}
{"molecule": "COc1cc(-c2cccc(C(F)(F)F)c2)c(F)cc1-n1c2c(ccc1=O)CN(S(=O)(=O)Nc1cccnn1)CC2", "reportedProperty": "log10 of IC50", "readoutValue": 1.47}
{"molecule": "COc1cc(-c2cccc(Cl)c2)c(F)cc1-n1c2c(ccc1=O)CN(S(=O)(=O)Nc1cccnn1)CC2", "reportedProperty": "log10 of IC50", "readoutValue": 1.88}
{"molecule": "COc1cc(-c2ccc(F)c(F)c2)c(F)cc1-n1c2c(ccc1=O)CN(S(=O)(=O)Nc1cccnn1)CC2 (racemic) [Example 32-(Rac)]", "reportedProperty": "log10 of IC50", "readoutValue": 2.21}
{"molecule": "COc1cc(-c2cccc(C(F)F)c2)c(F)cc1-n1c2c(ccc1=O)CN(S(=O)(=O)Nc1cccnn1)CC2", "reportedProperty": "log10 of IC50", "readoutValue": 2.42}
{"molecule": "COc1cc(-c2cccc(C(F)(F)F)c2)c(Cl)cc1-n1c2c(ccc1=O)CN(S(=O)(=O)Nc1cccnn1)CC2 (single isomer, unassigned) [Example 91-M]", "reportedProperty": "log10 of IC50", "readoutValue": 2.83}

Fill in log10 of IC50 for each of the 4 molecules listed.
1. COc1cc(-c2cc(Cl)ccc2C)c(F)cc1-n1c2c(ccc1=O)CN(S(=O)(=O)Nc1ccon1)CC2 (racemic) [9-(Rac)]
2. COc1cc(-c2cc(F)cc(Cl)c2)ccc1-n1c2c(ccc1=O)CN(S(=O)(=O)Nc1ccon1)CC2 (single isomer, unassigned) [Example 7-P]
3. COc1cc(OC)cc(-c2cc(OC)c(-n3c4c(ccc3=O)CN(S(=O)(=O)Nc3ccon3)CC4)cc2F)c1
4. COc1ccc(-c2ccc(C)c(Cl)c2)cc1-n1c2c(ccc1=O)CN(S(=O)(=O)Nc1cccnn1)CC2 (single isomer, unassigned) [Example 55-P]

1. 1.49
2. 1.88
3. 2.21
4. 2.85

* * *

biological target: human Nav1.7 (Homo sapiens); construct: expressed in transfected cells; host or cells: HEK293; assay: Nav 1.7 In Vitro PatchXpress (PX) Assay; format: cell-based; conditions: HEK 293 cells stably transfected with human Nav1.7; PatchXpress whole cell voltage clamp; partially inactivated state (holding potential yielding 20 to 50% inactivation); read-out: hNav1.7 PX IC50
pIC50: −log10 of the molar value.
reportedProperty: pIC50

Please review the entries below; each comes with its answer.
{"compound": "COc1cc(-c2ccc(F)c(F)c2)c(F)cc1-n1c2c(ccc1=O)CN(S(=O)(=O)Nc1ncccn1)CC2 (single isomer, unassigned) [Example 28-M]", "pIC50": "< 4.52"}
{"compound": "COc1cc(C(F)(F)F)ccc1-n1c2c(ccc1=O)CN(S(=O)(=O)Nc1ccon1)CC2 (single isomer, unassigned) [Example 26-M]", "pIC50": "< 6.00"}
{"compound": "COc1cc(-c2cc(F)cc(F)c2)c(F)cc1-n1c2c(ccc1=O)CN(S(=O)(=O)Nc1ncon1)CC2 (single isomer, unassigned) [Example 17-P]", "pIC50": "< 6.00"}
{"compound": "COc1ccccc1-n1c2c(ccc1=O)CN(S(=O)(=O)Nc1ccon1)CC2 (racemic)", "pIC50": "< 6.00"}
{"compound": "COc1cc(-c2ccc(F)c(F)c2)c(F)cc1-n1c2c(ccc1=O)CN(S(=O)(=O)Nc1ccon1)CC2 (single isomer, unassigned) [Example 20-M]", "pIC50": "< 4.52"}

Please give the measured pIC50 for this compound: COc1cc(-c2cc(F)cc(F)c2)c(F)cc1-n1c2c(ccc1=O)CN(S(=O)(=O)Nc1ccon1)CC2 (single isomer, unassigned) [Example 25-M]
< 6.00
